Recorded IC50 (nM), calcium flux assay in CCRF-CEM cells, 5 ng/ml cyno CCL17, one value per entry.
Target: T1, cyno CCL17 (Macaca fascicularis (cyno), UniProt Q8HYP9 24-94 (rhesus entry))
T1 sequence: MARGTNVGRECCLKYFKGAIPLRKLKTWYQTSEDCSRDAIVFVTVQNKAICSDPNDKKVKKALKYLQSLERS
Test: cell-based or functional assay
Give the number; nM is assumed, so skip it.

Examples with answers:
{"binder": "C17B236 (antibody, V domains shown, Full IgG1, kappa) VH: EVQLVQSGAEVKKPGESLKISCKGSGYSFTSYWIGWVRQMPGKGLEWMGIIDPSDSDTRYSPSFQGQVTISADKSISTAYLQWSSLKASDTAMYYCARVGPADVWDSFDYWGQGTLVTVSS VL: DIVMTQSPDSLAVSLGERATINCKSSQSVLLSPWNSNQLAWYQQKPGQPPKLLIYGASTRESGVPDRFSGSGSGTDFTLTISSLQAEDVAVYYCQQYYLIPSTFGQGTKVEIK", "assayResult": 0.349}
{"binder": "C17B302 (antibody, human IgG2, kappa, V domains shown) VH: EVQLVQSGAEVKKPGESLKISCKGSGYSFTSYWIGWVRQMPGKGLEWMGIIDPSDSDTRYSPSFQGQVTISADKSISTAYLQWSSLKASDTAMYYCARVGPADVWDAFDYWGQGTLVTVSS VL: DIVMTQSPDSLAVSLGERATINCKSSQSVLLSFDNINKLAWYQQKPGQPPKLLIYDASTRESGVPDRFSGSGSGTDFTLTISSLQAEDVAVYYCQQFYSVPSTFGQGTKVEIKR", "assayResult": 0.238}
{"binder": "C17B244 (antibody, V domains shown, Full IgG1, kappa) VH: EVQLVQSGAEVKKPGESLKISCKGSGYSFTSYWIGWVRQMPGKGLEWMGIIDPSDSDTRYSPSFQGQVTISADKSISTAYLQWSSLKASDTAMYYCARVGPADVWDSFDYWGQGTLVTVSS VL: DIVMTQSPDSLAVSLGERATINCKSSQSVLSSITNVNDLAWYQQKPGQPPKLLIYTASTRESGVPDRFSGSGSGTDFTLTISSLQAEDVAVYYCQQYYHDPFTFGQGTKVEIK", "assayResult": 0.311}

(Q) Hello, please tell me recorded IC50 (nM), calcium flux assay in CCRF-CEM cells, 5 ng/ml cyno CCL17 for this one: C17B311 (antibody, V domains shown) VH: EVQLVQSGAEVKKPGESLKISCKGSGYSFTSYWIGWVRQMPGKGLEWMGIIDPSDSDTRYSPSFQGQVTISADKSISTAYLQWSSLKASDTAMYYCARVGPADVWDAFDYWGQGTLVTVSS VL: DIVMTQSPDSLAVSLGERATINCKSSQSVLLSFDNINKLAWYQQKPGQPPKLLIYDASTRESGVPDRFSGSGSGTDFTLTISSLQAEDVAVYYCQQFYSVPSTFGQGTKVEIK
(A) 0.239

(Q) Hello, please tell me recorded IC50 (nM), calcium flux assay in CCRF-CEM cells, 5 ng/ml cyno CCL17 for this one: C17B243 (antibody, V domains shown, Full IgG1, kappa) VH: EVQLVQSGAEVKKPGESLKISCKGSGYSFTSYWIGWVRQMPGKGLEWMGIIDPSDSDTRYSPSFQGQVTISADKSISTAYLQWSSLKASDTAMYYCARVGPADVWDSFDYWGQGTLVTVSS VL: DIVMTQSPDSLAVSLGERATINCKSSQSVLNSFDNKNDLAWYQQKPGQPPKLLIYEASTRESGVPDRFSGSGSGTDFTLTISSLQAEDVAVYYCQQHWQTPLTFGQGTKVEIK
(A) 0.31
